Cited source: patent US20120172295A1

# target-under-test: glucagon receptor (UniProt P47871 26-477, limits assumed)
# Sequence (P47871 26-477 limits assumed): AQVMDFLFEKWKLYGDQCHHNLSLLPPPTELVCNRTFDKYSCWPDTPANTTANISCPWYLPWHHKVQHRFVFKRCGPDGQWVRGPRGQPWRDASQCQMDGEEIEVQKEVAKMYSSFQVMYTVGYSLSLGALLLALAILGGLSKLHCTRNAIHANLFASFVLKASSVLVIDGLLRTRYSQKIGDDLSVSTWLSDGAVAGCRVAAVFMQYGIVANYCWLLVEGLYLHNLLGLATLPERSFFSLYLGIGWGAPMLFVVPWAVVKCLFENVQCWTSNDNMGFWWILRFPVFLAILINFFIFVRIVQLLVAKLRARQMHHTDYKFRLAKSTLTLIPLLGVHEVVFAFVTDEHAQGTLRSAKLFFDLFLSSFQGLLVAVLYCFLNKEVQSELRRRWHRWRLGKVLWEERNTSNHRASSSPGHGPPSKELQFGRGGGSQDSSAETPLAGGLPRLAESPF
# method: cell-based or functional assay
Positions of bridges follow the written chain, without caps; N, C: chain ends. Non-standard residues stand in square brackets, D forms with d. No end group written: not given here. *: point of attachment. Isobutyryl(2-imidazol-4-yl) = CC(C)(C(=O)*)c1c[nH]cn1; PEG = not defined here; Aib = CC(C)(N)C(=O)O
Items are presented alongside their recorded % Potency Relative to Native.
Write the value in % as a bare number.

{"columns": ["binder", "number"],
 "data": [
  ["H[Aib]QGTFTSDYSKYLDERRAKDFVC(PEG)WLMNT-NH2 (lactam 16-20; reading uncertain) [E16, K20 AIB2, Cys24 Lactam (SEQ ID NO: 517), parent w/PEG]", 15.8]
]}

// below: % Potency Relative to Native requested for another binder
Query :: Dear colleague, I am looking for the recorded % Potency Relative to Native of the following binder: [Isobutyryl(2-imidazol-4-yl)]SQGTFTSDYSKYLDERRAKDFVC(PEG)WLMNGGPSSGAPPPS-NH2 (lactam 16-20; reading uncertain; also: PEG size not given here) [E16, K20 DMIA1, Gly29,30 Cys24 Cex Lactam (SEQ ID NO: 513), parent w/PEG]
Result :: 12.6
